Provenance of the data: ChEMBL document CHEMBL4342519

What logD was measured for each of the following?
Assay: Lipophilicity, log D of compound in PBS buffer at 0.25 MBq and pH 7.4 using 177Lu labeled compound by shake-flask method
Assay type: physicochemical
Settings: PBS buffer, read-out: logD
*1 amine or outer side, *2 acyl side, *3 side chain or, on linkers, in order; H or OH if unused. Where a SMILES comes first, the peptide text is derived from it. [ ]: non-standard residue; d: D form. The star is where a group is joined. X2 = CCCC[C@@H](C(=O)[*:2])n1cc([C@H](Cc2c[nH]c3ccccc23)N[*:1])nn1; X4 = C[C@H](N[*:1])c1cn([C@@H](Cc2ccc(O)cc2)C(=O)[*:2])nn1; DOTA = O=C(O)CN1CCN(CC(=O)O)CCN(CC(=O)*)CCN(CC(=O)O)CC1; X3 = O=C([C@H](Cc1c[nH]c2ccccc12)n1cc(CN[*:1])nn1)[*:2]; X5 = C[C@@H](C(=O)[*:2])n1cc([C@@H](CCC(=O)O)N[*:1])nn1; Nle = CCCC[C@H](N)C(=O)O
Answer with the value's number alone.

Input: Answer with reported logD of `CCCC[C@H](NC(=O)[C@H](Cc1c[nH]c2ccccc12)NC(=O)CNC(=O)[C@H](Cc1ccc(O)cc1)NC(=O)[C@H](C)NC(=O)[C@@H](CCC(=O)O)NC(=O)CN1CCN(CC(=O)O)CCN(CC(=O)O)CCN(CC(=O)O)CC1)c1cn([C@@H](CC(=O)O)C(=O)N[C@@H](Cc2ccccc2)C(N)=O)nn1`
Output: -3.75

Input: Supply reported logD belonging to this compound: `CCCC[C@H](NC(=O)[C@H](Cc1c[nH]c2ccccc12)NC(=O)CNC(=O)C[C@H](Cc1ccc(O)cc1)NC(=O)[C@H](C)NC(=O)[C@@H](CCC(=O)O)NC(=O)CN1CCN(CC(=O)O)CCN(CC(=O)O)CCN(CC(=O)O)CC1)C(=O)N[C@@H](CC(=O)O)C(=O)N[C@@H](Cc1ccccc1)C(N)=O`
Output: -3.83

Input: Retrieve logD measured for `CCCC[C@H](NC(=O)[C@H](Cc1c[nH]c2ccccc12)NC(=O)CNC(=O)[C@H](Cc1ccc(O)cc1)NC(=O)[C@H](C)NC(=O)[C@@H](CCC(=O)O)NC(=O)CN1CCN(CC(=O)O)CCN(CC(=O)O)CCN(CC(=O)O)CC1)C(=O)N[C@@H](CC(=O)O)c1cn([C@@H](Cc2ccccc2)C(N)=O)nn1` and print it.
Output: -3.95

Input: // Input: CCCC[C@H](NC(=O)[C@H](Cc1c[nH]c2ccccc12)NC(=O)CNC(=O)[C@H](Cc1ccc(O)cc1)n1cc([C@H](C)NC(=O)[C@@H](CCC(=O)O)NC(=O)CN2CCN(CC(=O)O)CCN(CC(=O)O)CCN(CC(=O)O)CC2)nn1)C(=O)N[C@@H](CC(=O)O)C(=O)N[C@@H](Cc1ccccc1)C(N)=O ({DOTA}-[dE][X4]GW[Nle]DF-NH2) . Output its logD only.
Output: -3.9

Input: Determine from records and report logD for CCCC[C@H](NC(=O)[C@H](Cc1c[nH]c2ccccc12)NC(=O)CNC(=O)[C@H](Cc1ccc(O)cc1)NC(=O)[C@H](C)n1cc([C@@H](CCC(=O)O)NC(=O)CN2CCN(CC(=O)O)CCN(CC(=O)O)CCN(CC(=O)O)CC2)nn1)C(=O)N[C@@H](CC(=O)O)C(=O)N[C@@H](Cc1ccccc1)C(N)=O ({DOTA}-[X5]YGW[Nle]DF-NH2)
Output: -3.98

Input: Supply recorded logD for CCCC[C@@H](C(=O)N[C@@H](CC(=O)O)C(=O)N[C@@H](Cc1ccccc1)C(N)=O)n1cc([C@H](Cc2c[nH]c3ccccc23)NC(=O)CNC(=O)[C@H](Cc2ccc(O)cc2)NC(=O)[C@H](C)NC(=O)[C@@H](CCC(=O)O)NC(=O)CN2CCN(CC(=O)O)CCN(CC(=O)O)CCN(CC(=O)O)CC2)nn1 ({DOTA}-[dE]AYG[X2]DF-NH2) here.
Output: -3.98

Input: Using known records, supply logD for `CCCC[C@H](NC(=O)[C@H](Cc1c[nH]c2ccccc12)NC(=O)CCNC(=O)[C@H](Cc1ccc(O)cc1)NC(=O)[C@H](C)NC(=O)[C@@H](CCC(=O)O)NC(=O)CN1CCN(CC(=O)O)CCN(CC(=O)O)CCN(CC(=O)O)CC1)C(=O)N[C@@H](CC(=O)O)C(=O)N[C@@H](Cc1ccccc1)C(N)=O`
Output: -3.73

Input: Supply logD value. Item: `CCCC[C@H](NC(=O)[C@H](Cc1c[nH]c2ccccc12)NC(=O)CNC(=O)[C@H](Cc1ccc(O)cc1)NC(=O)[C@H](C)NC(=O)[C@@H](CCC(=O)O)NC(=O)CN1CCN(CC(=O)O)CCN(CC(=O)O)CCN(CC(=O)O)CC1)C(=O)N[C@@H](CC(=O)O)C(=O)N[C@@H](Cc1ccccc1)c1c[nH]nn1`
Output: -3.69

Input: Tell me logD reported for CCCC[C@H](NC(=O)[C@H](Cc1c[nH]c2ccccc12)n1cc(CNC(=O)[C@H](Cc2ccc(O)cc2)NC(=O)[C@H](C)NC(=O)[C@@H](CCC(=O)O)NC(=O)CN2CCN(CC(=O)O)CCN(CC(=O)O)CCN(CC(=O)O)CC2)nn1)C(=O)N[C@@H](CC(=O)O)C(=O)N[C@@H](Cc1ccccc1)C(N)=O ({DOTA}-[dE]AY[X3][Nle]DF-NH2)
Output: -4

Input: Supply logD value. Item: CCCC[C@H](NC(=O)[C@H](Cc1c[nH]c2ccccc12)NC(=O)CNC(=O)[C@H](Cc1ccc(O)cc1)NC(=O)[C@H](C)NC(=O)[C@@H](CCC(=O)O)NC(=O)CN1CCN(CC(=O)O)CCN(CC(=O)O)CCN(CC(=O)O)CC1)C(=O)N[C@@H](CC(=O)O)C(=O)N[C@@H](Cc1ccccc1)C(N)=O ({DOTA}-[dE]AYGW[Nle]DF-NH2)
Output: -3.86
